Target: T1, Mouse GDF15 Fc (mouse, UniProt Q9Z0J7 189-303, limits assumed)
T1 construct: also called mouse GDF15Fc fusion
T1 sequence (looked up): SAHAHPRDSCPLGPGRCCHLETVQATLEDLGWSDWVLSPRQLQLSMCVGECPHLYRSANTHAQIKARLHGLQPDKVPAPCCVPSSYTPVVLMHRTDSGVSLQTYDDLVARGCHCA
Assay: Octet BLI, Fab monovalent
measured endpoint: pKd
In textbook form, pKd equals minus log to base ten of the concentration in mol/L.

binder	pKd
Clone M Fab (Fab, V domains shown, Fab format) VH: QVQLVQSGAEVKKPGASVKVSCKASGYTFDSYGINWVRQAPGQGLEWMGWISAYSGDTAYAQELQGRVTMTTDTSTSTAYMELRSLRSDDTAVYYCVRDTQYGGSPYWGQGTLVTVSS VL: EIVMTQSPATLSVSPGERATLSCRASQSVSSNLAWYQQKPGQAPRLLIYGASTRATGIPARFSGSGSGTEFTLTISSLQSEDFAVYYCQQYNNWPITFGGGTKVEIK	7.50
Clone N Fab (Fab, V domains shown, Fab format) VH: QVQLVQSGAEVKKPGASVKVSCKASGYTFTDYGIFWVRQAPGQGLEWMGWITAYSGDTHYAQKLQGRVTMTTDTSTSTAYMELRSLRSDDTAVYYCVRDTQYGGSPYWGQGTLVTVSS VL: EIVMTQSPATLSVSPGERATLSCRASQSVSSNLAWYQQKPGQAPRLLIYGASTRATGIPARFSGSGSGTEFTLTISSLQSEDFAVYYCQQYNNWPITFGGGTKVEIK	8.59
Clone K Fab (Fab, V domains shown, Fab format) VH: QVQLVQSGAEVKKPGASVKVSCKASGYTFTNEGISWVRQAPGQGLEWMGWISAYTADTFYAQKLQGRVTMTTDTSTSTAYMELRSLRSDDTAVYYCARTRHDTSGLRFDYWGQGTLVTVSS VL: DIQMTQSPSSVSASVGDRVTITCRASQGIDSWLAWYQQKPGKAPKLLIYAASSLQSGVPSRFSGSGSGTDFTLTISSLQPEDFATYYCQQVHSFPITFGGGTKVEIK	6.48

Now for another entry.
Please give measured pKd of the following entry: Clone T Fab (Fab, V domains shown, Fab format) VH: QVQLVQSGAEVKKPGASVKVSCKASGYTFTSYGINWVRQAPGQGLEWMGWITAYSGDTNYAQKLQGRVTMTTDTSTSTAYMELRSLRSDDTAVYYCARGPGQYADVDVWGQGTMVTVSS VL: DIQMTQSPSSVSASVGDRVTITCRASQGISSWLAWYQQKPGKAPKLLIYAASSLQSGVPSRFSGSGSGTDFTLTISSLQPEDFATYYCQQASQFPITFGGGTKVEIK 8.72
